Listed next: entries and their corresponding IC50.
# system_name: PRMT5 (Homo sapiens, UniProt O14744)
# Construct: purchased Viva (custom protein)
# Sequence (O14744 whole entry): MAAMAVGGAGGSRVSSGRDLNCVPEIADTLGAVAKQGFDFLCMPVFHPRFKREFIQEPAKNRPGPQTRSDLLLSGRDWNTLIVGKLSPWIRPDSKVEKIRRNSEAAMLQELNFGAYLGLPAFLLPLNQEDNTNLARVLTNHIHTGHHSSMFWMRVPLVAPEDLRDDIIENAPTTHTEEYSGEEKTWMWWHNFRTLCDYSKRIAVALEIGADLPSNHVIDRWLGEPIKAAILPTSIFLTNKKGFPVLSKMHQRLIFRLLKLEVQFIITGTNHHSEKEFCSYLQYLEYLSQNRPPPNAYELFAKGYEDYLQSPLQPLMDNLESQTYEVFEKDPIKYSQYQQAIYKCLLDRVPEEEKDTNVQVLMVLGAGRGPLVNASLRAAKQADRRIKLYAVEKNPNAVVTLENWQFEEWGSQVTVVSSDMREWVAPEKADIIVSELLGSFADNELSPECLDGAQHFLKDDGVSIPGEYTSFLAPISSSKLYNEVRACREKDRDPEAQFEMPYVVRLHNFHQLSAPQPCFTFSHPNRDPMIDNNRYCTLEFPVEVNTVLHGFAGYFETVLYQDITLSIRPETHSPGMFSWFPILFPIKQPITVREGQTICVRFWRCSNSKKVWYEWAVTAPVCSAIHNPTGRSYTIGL
# Sequence (Q9BQA1 whole entry partner): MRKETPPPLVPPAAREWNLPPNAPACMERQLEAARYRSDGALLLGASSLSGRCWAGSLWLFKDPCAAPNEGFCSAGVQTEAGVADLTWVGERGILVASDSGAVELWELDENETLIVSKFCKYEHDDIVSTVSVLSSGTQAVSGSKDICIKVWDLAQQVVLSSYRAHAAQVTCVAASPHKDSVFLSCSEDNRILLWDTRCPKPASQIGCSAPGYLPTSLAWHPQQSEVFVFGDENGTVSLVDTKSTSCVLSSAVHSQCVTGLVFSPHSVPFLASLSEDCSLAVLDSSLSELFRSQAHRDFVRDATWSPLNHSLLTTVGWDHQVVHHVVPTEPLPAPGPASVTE
# assay: PRMT5 biochemical IC50 assay with no cofactor
# particulars: PRMT5, no cofactor; read-out: No Cofactor/rel IC50
experimental_readout: IC50

| molecule | experimental_readout | result |
| --- | --- | --- |
| Cc1cc(NC(=O)C(=O)N2C[C@H](C)CC[C@H]2c2ccc3ncsc3c2)cnc1N (racemic) | IC50 | 50 to 500 nM |
| C[C@@H]1CC[C@@H](c2cc(F)cc(F)c2)N(C(=O)C(=O)Nc2cncc(C(N)=O)c2)C1 (racemic) | IC50 | 50 to 500 nM |
| COc1ncc(NC(=O)C(=O)N2C[C@H](C)CC[C@H]2c2ccc(C(N)=O)s2)cc1C(N)=O (single isomer, unassigned) | IC50 | > 500 nM |
| CCc1cc(NC(=O)C(=O)N2CC(C)CCC2c2ccc(N3CCC4C(CCCN4C)C3)cc2)cnc1N (single isomer, unassigned) [Compound 1111] | IC50 | < 50 nM |
| COc1ncc(NC(=O)C(=O)N2C[C@H](C)CC[C@H]2c2ccc(-c3cncs3)cc2)cc1C(N)=O (single isomer, unassigned) | IC50 | 50 to 500 nM |
| COc1cc([C@@H]2CC[C@@H](C)CN2C(=O)C(=O)Nc2cncc(C(N)=O)c2)ccc1F (racemic) | IC50 | 50 to 500 nM |
| CCc1cc(NC(=O)C(=O)N2C[C@@H](C)[C@H](OC)C[C@@H]2c2cccc(OCCN(C)C)c2)cnc1N (racemic) | IC50 | 50 to 500 nM |
| C[C@@H]1CC[C@@H](c2ccc(-c3cc[nH]n3)cc2)N(C(=O)C(=O)Nc2cncc(C(N)=O)c2)C1 (single isomer, unassigned) | IC50 | > 500 nM |
| NC(=O)CC1CCC2CN(C(=O)C(=O)Nc3cncc(C(N)=O)c3)CCC2C1 (stereo not shown) | IC50 | > 500 nM |
| CNS(=O)(=O)c1ccc([C@@H]2CC[C@@H](C)CN2C(=O)C(=O)Nc2cnc(N)c(C)c2)cc1 (racemic) | IC50 | 50 to 500 nM |
| Cc1nc2cc([C@H]3CC[C@H](C)CN3C(=O)C(=O)Nc3cnc(N)c(C)c3)ccc2[nH]1 (single isomer, unassigned) | IC50 | 50 to 500 nM |
| C[C@H]1CC[C@H](c2ccc(-c3nccs3)cc2)N(C(=O)C(=O)Nc2cncc(C(N)=O)c2)C1 (single isomer, unassigned) | IC50 | > 500 nM |
| C[C@@H]1CN(C(=O)C(=O)Nc2cncc(C(N)=O)c2)[C@@H](c2ccc(F)cc2)CC1(F)F (single isomer, unassigned) | IC50 | > 500 nM |

* * *

# Test system: HAP1 MTAP-deleted cell line
# assay: Viability assay, MTAP-deleted cell line
# Assay type: cell-based
# particulars: Homo sapiens, HAP1, viability IC50, MTAP-deleted cell line; read-out: HAP1 MTAP deleted viability
pIC50: −log10 of the molar value.
Listed next: entries and their corresponding pIC50.
experimental_readout: pIC50

| compound | system_name | result |
| --- | --- | --- |
| Cc1cc([C@H]2CC[C@H](C)CN2C(=O)C(=O)Nc2cnc(N)c(C)c2)ccc1O (single isomer, unassigned) | HAP1 MTAP-deleted cell line | < 5.00 |
| CCc1cc(NC(=O)C(=O)N2C[C@@H](C)CC[C@@H]2c2ccc3c(c2)CNC3=O)cnc1N (single isomer, unassigned) | HAP1 MTAP-deleted cell line | 5.00 to 6.00 |
| Cc1cc(NC(=O)C(=O)N2C[C@H](C)CC[C@H]2c2ccc(-c3ccn[nH]3)s2)cnc1N (racemic) | HAP1 MTAP-deleted cell line | > 6.00 |
| CC(=O)Oc1ccc([C@H]2CC[C@H](C)CN2C(=O)C(=O)Nc2cncc(C(N)=O)c2)cc1 (single isomer, unassigned) | HAP1 MTAP-deleted cell line | > 6.00 |
| Cc1cncc(NC(=O)C(=O)N2C[C@H](C)CC[C@H]2c2ccc(O)cc2)c1 (racemic) | HAP1 MTAP-deleted cell line | < 5.00 |
| Cc1cc(NC(=O)C(=O)N2C[C@H](C)CC[C@H]2c2ccncc2)cnc1N (single isomer, unassigned) | HAP1 MTAP-deleted cell line | 5.00 to 6.00 |

* * *

# system_name: PRMT5 (Homo sapiens, UniProt O14744)
# Construct: purchased Viva (custom protein)
# assay: PRMT5 biochemical IC50 assay with SAM as cofactor
# particulars: PRMT5, SAM as cofactor; read-out: SAM IC50
Listed next: entries and their corresponding IC50.

| compound | IC50 |
| --- | --- |
| CC[C@@H]1CC[C@@H](c2cn[nH]c2)N(C(=O)C(=O)Nc2cnc(N)c(C)c2)C1 (racemic) [Compound 1032] | 0.05 to 0.5 µM |
| C[C@@H]1CCC[C@@H]2CN(C(=O)C(=O)Nc3cncc(C(N)=O)c3)CC[C@@H]21 (racemic) [Compound 536] | 0.05 to 0.5 µM |
| COc1ncc(NC(=O)C(=O)N2C[C@@H](C)CC[C@@H]2c2cccc(N3CCN(C)CC3)c2)cc1C(N)=O [Compound 1277] | 0.05 to 0.5 µM |
| C[C@@H]1CC[C@@H](C2CCCCC2)N(C(=O)C(=O)Nc2cncc(C(N)=O)c2)C1 (single isomer, unassigned) [Compound 130] | > 0.5 µM |
| C[C@@H]1CC[C@@H](c2ccc3c(c2)CCC3)N(C(=O)C(=O)Nc2cncc(C(N)=O)c2)C1 (racemic) [Compound 277] | 0.05 to 0.5 µM |
| Cc1cc([C@@H]2CC[C@@H](C)CN2C(=O)C(=O)Nc2cnc(N)c(C)c2)ccn1 (single isomer, unassigned) [Compound 608] | < 0.05 µM |
| C[C@@H]1CC[C@@H](c2ccnc(C(F)(F)F)c2)N(C(=O)C(=O)Nc2cncc(C(N)=O)c2)C1 (racemic) [Compound 221] | 0.05 to 0.5 µM |

* * *

# system_name: PRMT5 (Homo sapiens)
# Construct: purchased Viva (custom protein)
# assay: PRMT5 biochemical IC50 assay with no cofactor
# particulars: PRMT5, no cofactor; read-out: No Cofactor/rel IC50
pIC50: −log10 of the molar value.
experimental_readout: pIC50

| molecule | experimental_readout | result |
| --- | --- | --- |
| C[C@@H]1CC[C@@H](c2ccc(N)cn2)N(C(=O)C(=O)Nc2cncc(C(N)=O)c2)C1 (single isomer, unassigned) [Compound 607] | pIC50 | < 6.30 |
| C[C@@H]1CC[C@@H](c2cncc(-n3cccn3)c2)N(C(=O)C(=O)Nc2cncc(C(N)=O)c2)C1 (racemic) [Compound 226] | pIC50 | < 6.30 |
| CC(=O)N[C@H]1C[C@H]([C@H]2CC[C@@H](C)CN2C(=O)C(=O)Nc2cnc(N)c(C)c2)C1 (single isomer, unassigned) [Compound 564] | pIC50 | < 6.30 |

* * *

# system_name: PRMT5 (Homo sapiens, UniProt O14744)
# Construct: purchased Viva (custom protein)
# assay: PRMT5 biochemical IC50 assay with SAM as cofactor
# particulars: PRMT5, SAM as cofactor; read-out: SAM IC50
Listed next: entries and their corresponding IC50.
experimental_readout: IC50

| compound | result |
| --- | --- |
| Cc1cc(NC(=O)C(=O)N2C[C@@H](C)CC[C@@H]2[C@@H]2CCC[C@@H](O)C2)cnc1N (single isomer, unassigned) | > 500 nM |
| CCc1cc(NC(=O)C(=O)N2C[C@@H](C)CC[C@@H]2c2ccc(N3CCC(CN(C)CC)CC3)cc2)cnc1N | 50 to 500 nM |
| CCc1cc(NC(=O)C(=O)N2C[C@@H](C)CC[C@@H]2c2ccc(NC3CCN(C)CC3)cc2)cnc1N | 50 to 500 nM |
| CCc1cc(NC(=O)C(=O)N2C[C@H](C)CC[C@H]2c2ccc3sc(C)nc3c2)cnc1N (single isomer, unassigned) | > 500 nM |
| Cc1cc(NC(=O)C(=O)N2C[C@H](C)CC[C@H]2c2ccc3scc(CCN(C)C)c3c2)cnc1N (racemic) | 50 to 500 nM |
| CCc1cc(NC(=O)C(=O)N2C[C@@H](C)[C@H](OC)C[C@@H]2c2cccc(OCCN(C)C)c2)cnc1N (racemic) | 50 to 500 nM |
| Cc1cc(NC(=O)C(=O)N2CCCCC2c2cccc3[nH]cnc23)cnc1N (stereo not shown) | 50 to 500 nM |
| Cc1cc(NC(=O)C(=O)N2CC(C)CCC2C2CNC(=O)C2)cnc1N (stereo not shown) | > 500 nM |
| Cc1cc(NC(=O)C(=O)N2C[C@H](C)CC[C@H]2c2ccc(CCN(C)C)cc2)cnc1N (racemic) [Compound 1233] | 50 to 500 nM |
| CCc1cc(NC(=O)C(=O)N2C[C@H](C)[C@H](OC)C[C@H]2c2ccc3scnc3c2)cnc1N (single isomer, unassigned) | > 500 nM |
| C[C@H]1CC[C@H](c2ccncc2)N(C(=O)C(=O)Nc2cncc(C(N)=O)c2)C1 (single isomer, unassigned) | 50 to 500 nM |
| COc1ncc(NC(=O)C(=O)N2C[C@@H](C)CC[C@@H]2c2ccc3sc([C@H]4CCCN(C)C4)nc3c2)cc1C(N)=O | < 50 nM |
| Cc1cc(NC(=O)C(=O)N2C[C@@H](C)CC[C@@H]2c2ccc3cc[nH]c(=O)c3c2)cnc1N (single isomer, unassigned) | > 500 nM |

Origin of measurements: patent US11999727B2
